We begin with a simple list: items and their reported in vitro MEK assay: % inhibition @ 1 μM.
molecular target: MEK (Homo sapiens); construct: no tag is given for the 2D mutant; experiment: in vitro MEK assay; type: biochemical; conditions: @ 1 μM
measured-quantity: in vitro MEK assay: % inhibition @ 1 μM (%)

[
  {
    "compound": "Cc1cc(I)ccc1Nc1c(C(=O)O)cc(C(=O)Nc2ccc3c(c2)OCCO3)c(F)c1F",
    "obs-value": 65
  },
  {
    "compound": "Cc1cc(I)ccc1Nc1c(C(=O)O)cc(C(=O)Nc2cccnc2)c(F)c1F",
    "obs-value": 50
  },
  {
    "compound": "Cc1cc(I)ccc1Nc1c(C(=O)O)cc(C(=O)NCCN2CCCCC2)c(F)c1F",
    "obs-value": 25
  },
  {
    "compound": "Cc1cc(I)ccc1N1COC(=O)c2cc(C(=O)NCCN3CCOCC3)c(F)c(F)c21",
    "obs-value": 15
  },
  {
    "compound": "Cc1cc(I)ccc1N1COC(=O)c2cc(C(=O)N3CCSC3)c(F)c(F)c21",
    "obs-value": 76
  },
  {
    "compound": "Cc1cc(I)ccc1Nc1c(C(=O)O)cc(C(=O)N2CCC(O)C2)c(F)c1F (centres unmarked)",
    "obs-value": 83
  },
  {
    "compound": "CCSc1nnc(NC(=O)c2cc3c(c(F)c2F)N(c2ccc(I)cc2C)COC3=O)s1",
    "obs-value": 5
  },
  {
    "compound": "Cc1cc(I)ccc1N1COC(=O)c2cc(C(=O)N3CCC(O)CC3)c(F)c(F)c21",
    "obs-value": 52
  }
]

---

target: MEK (Homo sapiens, UniProt Q02750); construct: no tag is given for the 2D mutant; experiment: in vitro MEK assay; format: biochemical; conditions: @ 1 μM
Sequence (Q02750 whole entry S218D/S222D, form open): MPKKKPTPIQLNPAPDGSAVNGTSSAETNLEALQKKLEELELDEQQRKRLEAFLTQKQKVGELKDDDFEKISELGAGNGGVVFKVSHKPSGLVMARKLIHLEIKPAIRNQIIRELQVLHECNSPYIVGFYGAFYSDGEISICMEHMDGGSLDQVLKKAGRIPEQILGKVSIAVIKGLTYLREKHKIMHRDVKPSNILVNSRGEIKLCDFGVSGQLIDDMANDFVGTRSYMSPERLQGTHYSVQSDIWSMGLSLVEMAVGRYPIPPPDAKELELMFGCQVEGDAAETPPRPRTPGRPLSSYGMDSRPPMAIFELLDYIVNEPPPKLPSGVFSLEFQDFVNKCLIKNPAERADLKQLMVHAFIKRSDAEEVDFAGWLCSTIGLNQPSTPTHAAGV
# label = Criterion met if in vitro MEK assay: % inhibition @ 1 μM >= 60% else Criterion not met

[
  {
    "molecule": "Cc1cc(I)ccc1Nc1c(C(=O)O)cc(C(=O)N2CCN(C)CC2)c(F)c1F",
    "assigned-category": "Criterion not met"
  },
  {
    "molecule": "Cc1cc(I)ccc1Nc1c(C(=O)O)cc(C(=O)N2CCC(CCO)CC2)c(F)c1F",
    "assigned-category": "Criterion met"
  },
  {
    "molecule": "Cc1csc(NC(=O)c2cc3c(c(F)c2F)N(c2ccc(I)cc2C)COC3=O)n1",
    "assigned-category": "Criterion not met"
  },
  {
    "molecule": "Cc1cc(I)ccc1N1COC(=O)c2cc(C(=O)N3CCCCC3CO)c(F)c(F)c21 (centres unmarked)",
    "assigned-category": "Criterion met"
  },
  {
    "molecule": "Cc1cc(I)ccc1N1COC(=O)c2cc(C(=O)N3CCCC(CO)C3)c(F)c(F)c21 (centres unmarked)",
    "assigned-category": "Criterion met"
  },
  {
    "molecule": "Cc1cc(I)ccc1N1COC(=O)c2cc(C(=O)N3CCNCC3)c(F)c(F)c21",
    "assigned-category": "Criterion not met"
  },
  {
    "molecule": "Cc1cc(I)ccc1Nc1c(C(=O)O)cc(C(=O)N2CCC(N3CCCC3)CC2)c(F)c1F",
    "assigned-category": "Criterion not met"
  },
  {
    "molecule": "Cc1cc(I)ccc1Nc1c(C(=O)O)cc(C(=O)NCC2CCCO2)c(F)c1F (centres unmarked)",
    "assigned-category": "Criterion met"
  },
  {
    "molecule": "Cc1cc(I)ccc1N1COC(=O)c2cc(C(=O)Nc3cccnc3)c(F)c(F)c21",
    "assigned-category": "Criterion not met"
  },
  {
    "molecule": "Cc1cc(I)ccc1Nc1c(C(=O)O)cc(C(=O)N(C)CCc2c[nH]c3ccccc23)c(F)c1F",
    "assigned-category": "Criterion met"
  },
  {
    "molecule": "CCN1CCN(C(=O)c2cc3c(c(F)c2F)N(c2ccc(I)cc2C)COC3=O)CC1",
    "assigned-category": "Criterion not met"
  },
  {
    "molecule": "Cc1cc(I)ccc1N1COC(=O)c2cc(C(=O)NCCN3CCCC3)c(F)c(F)c21",
    "assigned-category": "Criterion not met"
  },
  {
    "molecule": "Cc1cc(I)ccc1Nc1c(C(=O)O)cc(C(=O)NCCCN2CCCC2=O)c(F)c1F",
    "assigned-category": "Criterion met"
  },
  {
    "molecule": "Cc1cc(I)ccc1N1COC(=O)c2cc(C(=O)Nc3ccc(Cl)nc3)c(F)c(F)c21",
    "assigned-category": "Criterion met"
  },
  {
    "molecule": "COCC(C)NC(=O)c1cc2c(c(F)c1F)N(c1ccc(I)cc1C)COC2=O (centres unmarked)",
    "assigned-category": "Criterion not met"
  },
  {
    "molecule": "Cc1cc(I)ccc1N1COC(=O)c2cc(C(=O)NCCCN3CCCC3=O)c(F)c(F)c21",
    "assigned-category": "Criterion not met"
  },
  {
    "molecule": "Cc1cc(I)ccc1N1COC(=O)c2cc(C(=O)N3CCN(C=O)CC3)c(F)c(F)c21",
    "assigned-category": "Criterion not met"
  }
]

---

in vitro MEK assay: % inhibition @ 1 μM by entry:
Target: MEK (Homo sapiens)
Construct: no tag is given for the 2D mutant
Assay: in vitro MEK assay
Format: biochemical
Conditions: @ 1 μM
Description: For evaluation of direct MEK activity, 10 μg GST-MEK, is incubated in the presence of absence of test compound with 5 μg of a glutathione S-transferase fusion protein containing p44MAP kinase with a lysine to alanine mutation at position 71 (GST-MAPK-KA). This mutation eliminates kinase activity of MAPK, so only kinase activity attributed to the added MEK remains. […] Radioactivity incorporated into GST-MAPK-KA is determined by autoradiography, and subsequent scintillation counting of excised bands. […]
measured-quantity: in vitro MEK assay: % inhibition @ 1 μM

[
  {
    "compound": "Cc1cc(I)ccc1Nc1c(C(=O)O)cc(C(=O)Nc2ccc(N(C)C)cc2)c(F)c1F [Example 92]",
    "test-target": "MEK (Homo sapiens)",
    "obs-value": "80%"
  },
  {
    "compound": "Cc1cc(I)ccc1N1COC(=O)c2cc(C(=O)N3CCCCC3CCO)c(F)c(F)c21 (stereo not shown) [Example 32]",
    "test-target": "MEK (Homo sapiens)",
    "obs-value": "76%"
  },
  {
    "compound": "Cc1cc(I)ccc1N1COC(=O)c2cc(C(=O)Nc3nnc(S)s3)c(F)c(F)c21 [Example 27]",
    "test-target": "MEK (Homo sapiens)",
    "obs-value": "27%"
  },
  {
    "compound": "Cc1cc(I)ccc1Nc1c(C(=O)O)cc(C(=O)Nc2ccc(S(N)(=O)=O)cc2)c(F)c1F [Example 96]",
    "test-target": "MEK (Homo sapiens)",
    "obs-value": "85%"
  }
]

---

biological target: MEK (Homo sapiens, UniProt Q02750); construct: no tag is given for the 2D mutant; test: in vitro MEK assay; format: biochemical; conditions: @ 1 μM
The following compounds are listed with their measured in vitro MEK assay: % inhibition @ 1 μM values.
measured-quantity: in vitro MEK assay: % inhibition @ 1 μM (%)

[
  {
    "compound": "Cc1cc(I)ccc1N1COC(=O)c2cc(C(=O)N3CCSCC3)c(F)c(F)c21",
    "unit-annotation": "%",
    "obs-value": 75
  },
  {
    "compound": "CCOC(=O)c1c[nH]nc1NC(=O)c1cc(C(=O)O)c(Nc2ccc(I)cc2C)c(F)c1F",
    "unit-annotation": "%",
    "obs-value": 86
  },
  {
    "compound": "Cc1cc(I)ccc1N1COC(=O)c2cc(C(=O)N3CCC(O)C3)c(F)c(F)c21 (centres unmarked)",
    "unit-annotation": "%",
    "obs-value": 42
  },
  {
    "compound": "Cc1cc(I)ccc1Nc1c(C(=O)O)cc(C(=O)NCc2cccnc2)c(F)c1F",
    "unit-annotation": "%",
    "obs-value": 86
  },
  {
    "compound": "Cc1cc(I)ccc1Nc1c(C(=O)O)cc(C(=O)NCCc2c[nH]cn2)c(F)c1F",
    "unit-annotation": "%",
    "obs-value": 60
  },
  {
    "compound": "CCOC(=O)c1c[nH]nc1NC(=O)c1cc2c(c(F)c1F)N(c1ccc(I)cc1C)COC2=O",
    "unit-annotation": "%",
    "obs-value": 72
  },
  {
    "compound": "Cc1cc(I)ccc1Nc1c(C(=O)O)cc(C(=O)NCCOCCO)c(F)c1F",
    "unit-annotation": "%",
    "obs-value": 63
  },
  {
    "compound": "Cc1cc(I)ccc1N1COC(=O)c2cc(C(=O)N3CCOCC3)c(F)c(F)c21",
    "unit-annotation": "%",
    "obs-value": 72
  },
  {
    "compound": "COC[C@@H]1CCCN1C(=O)c1cc2c(c(F)c1F)N(c1ccc(I)cc1C)COC2=O",
    "unit-annotation": "%",
    "obs-value": 93
  },
  {
    "compound": "Cc1cc(I)ccc1N1COC(=O)c2cc(C(=O)N(C)CCc3c[nH]c4ccccc34)c(F)c(F)c21",
    "unit-annotation": "%",
    "obs-value": 41
  },
  {
    "compound": "Cc1cc(I)ccc1N1COC(=O)c2cc(C(=O)N(C)C3CCN(C)CC3)c(F)c(F)c21",
    "unit-annotation": "%",
    "obs-value": 0
  }
]

Just for reference, patent US7001905B2 is where these values come from.
